// data source = patent US8952024B2

system: giant foxtail (Setaria faberii); experiment: Test A pre-/postemergence plant response; assay type: in vivo; conditions: Postemergence, 500 g ai/ha; visual injury, 0 to 100 scale (0 no effect, 100 complete control), approx. ten days
VALUE_TYPE: Foxtail, Giant plant response rating

[[record]]
molecule = "COCCn1c(-c2cccc(F)c2)ncc(C(=O)C2=C(O)C3CCC(C3)C2=O)c1=O (centres unmarked) [Compound 235]"
value_type = "Foxtail, Giant plant response rating"
reported_value = 100

[[record]]
molecule = "CCc1cccc(-c2ncc(C(=O)C3=C(O)CCCC3=O)c(=O)n2C2CCCCC2)c1 [Compound 194]"
value_type = "Foxtail, Giant plant response rating"
reported_value = 50

[[record]]
molecule = "CCn1c(-c2cccc(C)c2)ncc(C(=O)C2=C(O)C3CCC(C3)C2=O)c1=O (centres unmarked) [Compound 231]"
value_type = "Foxtail, Giant plant response rating"
reported_value = 80

[[record]]
molecule = "CCCn1c(-c2cccs2)ncc(C(=O)c2cnn(CC)c2O)c1=O [Compound 221]"
value_type = "Foxtail, Giant plant response rating"
reported_value = 10

[[record]]
molecule = "Cc1ccc(Cl)cc1-n1c(-c2cccc(F)c2)ncc(C(=O)C2=C(O)CCCC2=O)c1=O [Compound 184]"
value_type = "Foxtail, Giant plant response rating"
reported_value = 100

[[record]]
molecule = "O=C1CCCC(O)=C1C(=O)c1cnc(-c2ccccc2)n(C2CCCCCCCCCCC2)c1=O [Compound 165]"
value_type = "Foxtail, Giant plant response rating"
reported_value = 30

[[record]]
molecule = "Cc1ccc(Cl)cc1-n1c(-c2cc(F)cc(F)c2)ncc(C(=O)C2=C(O)CCCC2=O)c1=O [Compound 179]"
value_type = "Foxtail, Giant plant response rating"
reported_value = 90

[[record]]
molecule = "O=C1CCCC(O)=C1C(=O)c1cnc(-c2cccc(F)c2)n(-c2ccccc2)c1=O [Compound 199]"
value_type = "Foxtail, Giant plant response rating"
reported_value = 100

